# System: HepG2 cells
# EXPERIMENT: Lactate dehydrogenase
# TEST_SETTINGS: read-out: Cytotoxicity EC50, HepG2; HepG2, LDH leakage, mean ± SEM, n ≥ 2
pEC50: −log10 of the molar value.

# MOLECULE, pEC50
data = [
    ("COc1cc(C)c(-c2ccc(O)c3c2C[C@@H](C)N[C@@H]3C)c2cccc(O)c12 (single isomer, unassigned)", 4.67),
]

====

# EXPERIMENT: Single-point metabolic stability, rat liver microsomes
# Format: in vitro ADME
# TEST_SETTINGS: male, IGS, rat, liver microsomes, % Remaining after 30 min, Rat, 1 μM, rat liver microsomes 0.4 mg/ml, 30 min, 37 °C
MEASURED_ATTRIBUTE: remaining at 0.5 h, 1 μM

# MOLECULE, MEASURED_ATTRIBUTE, OBSERVED_RESULT
records = [
    ("COc1cc(CO)c(-c2ccc3c(c2O)[C@@H](C)N[C@H](C)C3)c2cccc(O)c12", "remaining at 0.5 h, 1 μM", "> 99%"),
]
